# measurement protocol: chemical genetic growth profiling, strain panel (AID 1159580);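 further: tested at 20 µM; growth read once vehicle control cultures reached saturation at 30 °C; 1 = growth at the plate median or of vehicle wells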
# measurement conditions: S. cerevisiae deletion strains, growth OD, locus YJL092W, strain hpr5, active compounds read low
Among all 5,500 compounds or so, about 2,000 (36%) were called active. About 18% were inconclusive and are not listed. The list shows a part of the results.
The compounds listed here are annotated with their normalized growth.

# annotated cases, reported normalized growth shown
INSERT INTO results (compound, observed_measurement) VALUES
  ('NCC1CCCCC1CC(=O)O (configuration not stated)', '1.03 (inactive)'),
  ('CC(C)N(C(=O)CCl)c1ccccc1', '1.03 (inactive)'),
  ('COc1c2c(c(CC=C(C)C)c3oc(=O)c(-c4ccc(O)cc4)c(O)c13)OC(C)(C)C=C2', '0.932 (inactive)'),
  ('COc1ccc(-c2coc3c(O)c(OC)ccc3c2=O)cc1', '0.982 (inactive)'),
  ('c1ccc(CC2=NCCN2)cc1', '1.01 (inactive)'),
  ('CN=C(NC#N)NCCSCc1nc[nH]c1C', '0.994 (inactive)');

Let us move to another entry and its normalized growth.
GET /value?item= c1ccc(CN(CC2=NCCN2)c2ccccc2)cc1 &field=normalized growth returns 1.03 (inactive)

---

# measurement protocol: chemical genetic growth profiling, strain panel (AID 1159580)
# measurement conditions: S. cerevisiae deletion strains, growth OD, locus YLR342W, strain FKS1, active compounds read low
Hit rate of the full screen: of about 5,500 compounds, about 2,000 (36%) were called active. Not shown: some 18% with an inconclusive outcome. The list shows a part of the results.
quantity measured: normalized growth
Reply briefly: the number, and no unit.

Observe how each entry below is paired with its result.
INSERT INTO assay_data (compound, observed_measurement) VALUES
  ('CCCCOc1ccc(CC(=O)NO)cc1', 1.01),
  ('CC(C)[C@H](N)C(=O)OCCOCn1cnc2c(=O)[nH]c(N)nc21', 1.03),
  ('C[N+](C)(C)CCOP(=O)([O-])OP(=O)(O)OC[C@H]1OC(n2ccc(N)nc2=O)[C@H](O)[C@@H]1O (stereo not given in full)', 0.974),
  ('CN=C(NC#N)NCCSCc1nc[nH]c1C', 1),
  ('c1ccc(CC2=NCCN2)cc1', 1.03);

Input CO[C@H]1C[C@H](O[C@H]2[C@H](C)[C@@H](OC3O[C@H](C)C[C@H](N(C)C)[C@H]3O)[C@@H](C)C[C@]3(CO3)C(=O)[C@H](C)[C@@H](O)[C@@H](C)[C@@H](C)OC(=O)[C@@H]2C)O[C@@H](C)[C@@H]1O (stereo not given in full) . Output normalized growth: 1.01

The compound listed as CC(=O)O[C@@](C)(CCC=C(C)C)C1CC=C(C)CC1 (stereo not given in full) has a reported normalized growth of 0.974

Looking up COc1ccc(C2CC(=O)c3ccc(OC)cc3O2)cc1 (stereo not given) , I see its normalized growth listed as 0.936

normalized growth for Cc1c(N(C)C)c(=O)n(-c2ccccc2)n1C is 0.961

Given item c1ccc(CN(CC2=NCCN2)c2ccccc2)cc1 , the value recorded as its normalized growth is 1.02

---

# measurement protocol: chemical genetic growth profiling, strain panel (AID 1159580)
# measurement conditions: S. cerevisiae deletion strains, growth OD, locus YLR357W, strain rsc2, active compounds read low
Hit rate of the full screen: of about 5,500 compounds, about 2,000 (36%) were called active. Roughly 18% stayed inconclusive and do not appear here. The list shows a part of the results.
Exam item: assign 1.0 to entries whose normalized growth is below 1 and 0.0 to entries at or above 1. Note that a value of exactly 1 receives 0.0.

Some entries whose results are on file:
INSERT INTO assay_data (compound, classification) VALUES
  ('CC1(C)C2CC[C@]3(C)C(C(=O)C=C4[C@H]5C[C@@](C)(C(=O)O)CC[C@]5(C)CC[C@]43C)[C@@]2(C)CC[C@@H]1O (stereo not given in full)', 0.0),
  ('COc1c(O)cc2oc3cc(O)c(CC=C(C)C)c(O)c3c(=O)c2c1CC=C(C)C', 1.0),
  ('CC1(C)C2CC[C@]3(C)C(C(=O)C=C4[C@@H]5C[C@@](C)(C(=O)O)CC[C@]5(C)CC[C@]43C)[C@@]2(C)CC[C@@H]1OC(=O)CCC(=O)O (stereo not given in full)', 1.0);

Consider the record given below.
Inquiry: Say whether its normalized growth is strictly beneath 1. Entry: COc1cc(O)c2c(=O)cc(C)oc2c1CC=C(C)C
Reply text: 0.0

---

# measurement protocol: chemical genetic growth profiling, strain panel (AID 1159580);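 further: tested at 20 µM; growth read once vehicle control cultures reached saturation at 30 °C; 1 = growth at the plate median or of vehicle wells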
# measurement conditions: S. cerevisiae deletion strains, growth OD, locus YLL001W, strain dnm1
Out of some 5,500 compounds screened, about 2,000 (36%) were called active. Not shown: some 18% with an inconclusive outcome. No stated cut-off is given here; in the data, active means normalized growth mostly below about 0.91 (no sharp cut-off); inconclusive means no clear call, values can overlap the other calls; inactive means mostly above about 0.92. This is one part of the list.
// classify into 1.0 (active), 0.0 (inactive)

INSERT INTO results (molecule, classification) VALUES
  ('NC[C@@H]1O[C@H](O[C@@H]2[C@@H](CO)OC(O[C@@H]3[C@@H](O)[C@H](N)C[C@H](N)[C@H]3OC3O[C@H](CN)[C@@H](O)[C@H](O)[C@H]3N)[C@@H]2O)[C@H](N)[C@@H](O)[C@@H]1O (stereo partly specified)', 0.0),
  ('CN=C(NC#N)NCCSCc1nc[nH]c1C', 0.0),
  ('COc1c2c(c(CC=C(C)C)c3oc(=O)c(-c4ccc(O)cc4)c(O)c13)OC(C)(C)C=C2', 1.0),
  ('O=C(Cc1ccccc1)NO', 0.0),
  ('CCCCOc1ccc(CC(=O)NO)cc1', 0.0),
  ('O=C(O)c1ccccc1OP(=O)(O)O', 0.0);

Inquiry: Can you look up the reported call for Cn1cc[nH]c1=S for me?
Reply text: 0.0

Inquiry: Can you look up the reported call for CCc1ccc(CCOc2ccc(CC3SC(=O)NC3=O)cc2)nc1 (stereo unspecified) for me?
Reply text: 0.0

Inquiry: Returns: the outcome recorded for NCC1CCCCC1CC(=O)O (stereo unspecified) in this assay.
Reply text: 0.0

Inquiry: What is the recorded call for this molecule in the test? COc1ccc(C(=O)c2ccccc2O)c(O)c1
Reply text: 0.0

Inquiry: Field: outcome | Entry: CC(C)[C@H](N)C(=O)OCCOCn1cnc2c(=O)[nH]c(N)nc21
Reply text: 0.0

---

# measurement protocol: chemical genetic growth profiling, strain panel (AID 1159580);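 further: tested at 20 µM; growth read once vehicle control cultures reached saturation at 30 °C; 1 = growth at the plate median or of vehicle wells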
# measurement conditions: S. cerevisiae deletion strains, growth OD, locus YPR106W, strain ISR1, active compounds read low
In all, about 5,500 compounds went through this assay and about 2,000 (36%) were called active. Not shown: some 18% with an inconclusive outcome. The list shows a part of the results.
quantity measured: normalized growth
Just the number, please, no unit after it.

Take a look at these entries with their results.
INSERT INTO results (compound, quantity_measured, observed_measurement) VALUES
  ('NC(N)=Nc1nc(-c2cc(Cl)sc2Cl)cs1', 'normalized growth', 0.985),
  ('Cc1cc(SCc2[nH]nc3oc(=O)cc(C)c23)c(Cl)cc1Cl', 'normalized growth', 1),
  ('O=C(NCc1ccco1)c1ccc(Oc2cc(Cl)cc(Cl)c2)o1', 'normalized growth', 0.958),
  ('N#Cc1c(Cl)c(Cl)c(Cl)c(Cl)c1C#N', 'normalized growth', 0.851),
  ('O=C(CCN1CCCCC1)c1ccc(-c2ccccc2)cc1', 'normalized growth', 0.989);

Recorded result, CC1=CC(=O)C(CCOCCC2=CC(=O)C(C)=CC2=O)=CC1=O , normalized growth: 0.986

// field: normalized growth; key: O=C(C=C(O)c1ccc(Br)cc1)C(=O)Nc1ccccc1 ; value = 0.513

S=C(Nc1cc(-c2cccs2)[nH]n1)Nc1ccccc1Cl has a reported normalized growth of 0.932

---

# measurement protocol: chemical genetic growth profiling, strain panel (AID 1159580);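 further: tested at 20 µM; growth read once vehicle control cultures reached saturation at 30 °C; 1 = growth at the plate median or of vehicle wells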
# measurement conditions: S. cerevisiae deletion strains, growth OD, locus YNL183C, strain NPR1, active compounds read low
The campaign covered roughly 5,500 compounds. About 2,000 (36%) were called active. Roughly 18% stayed inconclusive and do not appear here. The list shows a part of the results.
Label condition met when normalized growth < 0.9; otherwise condition not met.

INSERT INTO measurements (molecule, classification) VALUES
  ('COc1cc(OC)c(C(=O)CCCN2CCCC2)c(OC)c1', 'condition not met'),
  ('Cc1cc(SCc2[nH]nc3oc(=O)cc(C)c23)c(Cl)cc1Cl', 'condition not met'),
  ('COc1cccc([C@]2(O)CCCC[C@H]2CN(C)C)c1', 'condition not met');

Inquiry: hey, is normalized growth for CCCCOc1ccc(C(=O)CCN2CCCCC2)cc1 lower than 0.9 or not?
Reply text: condition met

Inquiry: For CC(C(=O)O)c1ccc2c(c1)[nH]c1ccc(Cl)cc12 (centres undefined) , is the recorded normalized growth below the cut-off of 0.9?
Reply text: condition met

Each recorded value in this set is attributed to PubChem BioAssay AID1159580.
